- system: T1, Recombinant human CD5 extracellular domain (CD5-ECD) (human, UniProt P06127 25-372)
- T1 construct: In-house protein made as CD5-ECD - TEV site - hGH fusion; CD5-ECD isolated by TEV cleavage and nickel column; also called CD5-ECD protein
- T1 sequence: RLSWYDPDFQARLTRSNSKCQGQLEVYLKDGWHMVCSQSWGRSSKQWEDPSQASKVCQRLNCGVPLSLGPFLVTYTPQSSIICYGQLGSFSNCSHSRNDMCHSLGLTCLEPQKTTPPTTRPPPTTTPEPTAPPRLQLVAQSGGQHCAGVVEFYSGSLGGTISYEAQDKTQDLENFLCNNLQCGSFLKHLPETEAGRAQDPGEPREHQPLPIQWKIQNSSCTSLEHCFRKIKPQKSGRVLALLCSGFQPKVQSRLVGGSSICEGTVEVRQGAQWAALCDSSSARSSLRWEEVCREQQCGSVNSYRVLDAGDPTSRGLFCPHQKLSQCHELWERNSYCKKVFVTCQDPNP
- assay: SPR (Biacore 2000), antibody captured by anti-human Fc, CD5-ECD in solution, 1:1 fit;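 note: CM5 chip, binding curves at four CD5-ECD concentrations fitted globally, with the signal of a non-CD5-binding control antibody subtracted as reference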
# strict inequality: kon < 90000 M⁻¹ s⁻¹ yields 1.0, everything else yields 0.0

Use these answered entries as a reference point.
Anti-CD5 antibody 17 (7H7) (antibody, human IgG1, V domains shown, also called Ab17; Clone 17) VH: EVQLVESGPGLVQPSQSLSITCTVSGFSLTNYDVHWVRQSPGKGLEWLGVIWNYGNTDYNAAFISRLSIRKDSSKSQVFFTMSSLQTPDTAIYYCARNHGDGYYNWYFDV VL: NIVLTQSPSSLSESLGGKVTITCKASQDINKYIAWYQYKPGKGPRLLIHYTSTLQPGIPSRFSGSGSGRDYSFSISNLEPEDIATYYCLQYDNLWT ... 0.0
Anti-CD5 antibody 8 (8G8) (antibody, human IgG1, V domains shown, also called Ab8; Clone 8) VH: QVQLKESGPELEKPGASVRISCKASGYSFTAYNINWVTQRDGKSLEWIGSIDPYYGDTKYNQKFKDKATLTVDKSSSTAHMQVKSLTSEDSAIYYCARRMITMGDWYFDV VL: EIVLTQSPSSLSASLGDRVTISCRASQDISNYLNWYQRKPDGTVKLLIYYTSRLQSGVPSRFSGSGSGSEYSLTISNLDQEDIATYFCQQGDALPWT ... 1.0

Switching to the query record.
Q. Hello, I'm reviewing records and need to know if kon of Anti-CD5 antibody 32 (4F3) (antibody, human IgG1, V domains shown, also called Ab32; Clone 32) VH: EVKLVESGPELKKPGETVKISCKASGYMFTNYGMNWVKQAPGKGLKWMGWINTYTGEPTYVEDFKGRFAFSLETSANTAYLQINNLKNEDTATYFCTRRSHITLDY VL: DIVLTQSPVILSVSPGERVSLSCRASQSIGTSINWYQQRTDGSPRLLIKSASESMSGIPSRFSGSGSGTDFTLSITSVESEDIADYYCQQSNSWPLT is below 90000 M⁻¹ s⁻¹. Could you check?
A. 0.0

Data provenance is patent US20110250203A1.
